Hello, the source for this data is the RNAGym collection of RNA variant scans (doi:10.1093/molbev/msab373), in case you need it.

Parameter reverse-splicing fitness: see the listing below.
B1: Azoarcus group I ribozyme (parent)
chain: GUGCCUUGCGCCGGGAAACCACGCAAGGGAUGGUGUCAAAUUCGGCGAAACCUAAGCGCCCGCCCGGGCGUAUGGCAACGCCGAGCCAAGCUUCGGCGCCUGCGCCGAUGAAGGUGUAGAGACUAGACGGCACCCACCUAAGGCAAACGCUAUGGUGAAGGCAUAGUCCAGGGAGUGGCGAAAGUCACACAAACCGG

- Variants of: B1
- Test name: reverse-splicing fitness (ratio to wild type); higher = more active; in vitro selection; Mg2+ level not given
Endpoint: reverse-splicing fitness

| Sequence change | Endpoint value |
| --- | --- |
| C82U A120C A145U C169G U176A | 0.00692 |
| C82U A111G A120C A145G U176A | 0.0202 |
| C82G A111C A120G A145G C150U C169A U176G | 0.00695 |
| C82G A111U A120C A145C C169U | 0.0119 |
| C82A A111U A120C A145C C150U C169A U176G | 0.00873 |
| C82A A111C A120U C169A U176A | 0.00417 |
| C82A A111G A145U C150U C169U U176G | 0.00658 |
| C82U A111C A120C A145G C150U C169U | 0.012 |
| C82G A111C A120C A145C U176A | 0.0166 |
| A111U A120U C150G C169U U176A | 0.00272 |
| C82G A111U A120G A145C | 0.0134 |
| C82G A111C A145G C169G U176C | 0.0315 |
| A111U A120C C150G C169G U176C | 0.00491 |
| C82G A120U A145C C150G C169A | 0.00195 |
| C82U A111G A120U A145U C150G C169A U176A | 0.00259 |
| C82G A111G A120U C169A U176A | 0.00371 |
| C82U A120C A145G C150U | 0.139 |
| A145C C150A C169U U176G | 0.00589 |
| C82A A111G A120C C150U C169U U176C | 0.0125 |
| C82G A120G A145G C169A | 0.0319 |
| C82U A111G A120G A145U C169A | 0.00841 |
| A111C A145U C150U C169A U176A | 0.0122 |
